target: OX1 (Homo sapiens, UniProt O43613)
Construct: expressed in transfected cells; host or cells: CHO (CHO-OX1, kept under selection antibiotic)
Sequence (O43613 whole entry): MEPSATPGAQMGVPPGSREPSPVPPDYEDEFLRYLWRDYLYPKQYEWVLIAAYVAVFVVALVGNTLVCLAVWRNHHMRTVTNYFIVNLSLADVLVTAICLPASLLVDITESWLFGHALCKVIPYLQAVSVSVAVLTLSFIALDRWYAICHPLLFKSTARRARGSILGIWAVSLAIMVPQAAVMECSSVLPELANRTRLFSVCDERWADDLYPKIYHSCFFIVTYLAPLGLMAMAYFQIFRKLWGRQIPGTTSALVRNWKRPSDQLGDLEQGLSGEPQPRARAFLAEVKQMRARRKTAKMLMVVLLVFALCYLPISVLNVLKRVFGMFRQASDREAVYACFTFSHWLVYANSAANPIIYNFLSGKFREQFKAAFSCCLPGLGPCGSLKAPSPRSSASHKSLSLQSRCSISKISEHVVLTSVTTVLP
experiment: Orexin receptor cell-based functional assay, [Ca2+]i by FLIPR, CHO-OX1 cells
condition-summary: CHO-OX1 cells, [Ca2+]i by FLIPR, antagonist dose-range 0.1 nM-10 μM, EC90 of OXA; read-out: OX1
pIC50: −log10 of the molar value.
recorded-endpoint: pIC50

Answered examples (2):
Cc1ccc(-c2ccccn2)c(C(=O)N2CCC[C@@H](C)[C@H]2CNc2ccc(C(F)(F)F)nn2)c1 [Example A150] ... 6.89
Cc1ccc(-c2cccnc2)c(C(=O)N2CCC[C@@H](C)[C@H]2CNc2ncc(Cl)cn2)n1 [Example A222] ... 7.09

I: C[C@@H]1CCCN(C(=O)c2c(-n3nccn3)ccc(F)c2F)[C@@H]1CNc1ncc(C(F)(F)F)cn1 [Example A337]
II: Cc1ccc(-n2ccc(C)n2)c(C(=O)N2CCC[C@@H](C)[C@H]2CNc2ccc(C#N)cn2)c1 [Example A133]
III: C[C@@H]1CCCN(C(=O)c2cccc(F)c2-c2ncccn2)[C@@H]1CNc1ncc(Cl)cn1 [Example A231]
IV: Cc1ccc(-n2nccn2)c(C(=O)N2CCC[C@@H](C)[C@H]2CNc2nc3cc(Cl)ccc3o2)n1 [Example A195]
Order these by pIC50, descending, and give the full ranking. Write the labels, ordered according to the request.
IV, I, III, II
(IV: 8.40, I: 8.05, III: 7.77, II: 7.03)
